B1: HDV Ribozyme (parent)
chain: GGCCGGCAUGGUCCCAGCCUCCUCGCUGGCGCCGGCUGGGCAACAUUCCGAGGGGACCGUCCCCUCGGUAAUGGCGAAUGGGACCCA

# Variants of: B1
# measurement.notes: self-cleavage, relative activity (ratio to wild type); higher = more cleavage; co-transcriptional
test.readout: self-cleavage
Please reply with the value in numeric form only.

Request: Looking for the measured self-cleavage of G5C C19A , can you help?
Result: 0

Request: Let us now turn to G39A C64G
Result: 0.492

Request: Let us now turn to C3G C24A
Result: 0

Request: Let us now turn to C33G C57U
Result: 0.166

Request: Let us now turn to U20G C57A
Result: 0.111

Request: Let us now turn to G28A U69G
Result: 0

Request: Let us now turn to C13G U47C
Result: 0

Request: Let us now turn to C22U C61U
Result: 0.62

Request: Let us now turn to G54C C62U
Result: 0.746

Request: Let us now turn to C22U C62A
Result: 0.623

Request: Let us now turn to C15U G38C
Result: 0.17

Cited source for all entries: the RNAGym collection of RNA variant scans (doi:10.7554/elife.80360)
